Biological target: T1, human calcitonin receptor (human, UniProt P30988 25-474)
T1 construct: whole, on cells; membranes of stably transfected BHK cells (Assay VII); also called hCTR; hCT
T1 sequence (looked up): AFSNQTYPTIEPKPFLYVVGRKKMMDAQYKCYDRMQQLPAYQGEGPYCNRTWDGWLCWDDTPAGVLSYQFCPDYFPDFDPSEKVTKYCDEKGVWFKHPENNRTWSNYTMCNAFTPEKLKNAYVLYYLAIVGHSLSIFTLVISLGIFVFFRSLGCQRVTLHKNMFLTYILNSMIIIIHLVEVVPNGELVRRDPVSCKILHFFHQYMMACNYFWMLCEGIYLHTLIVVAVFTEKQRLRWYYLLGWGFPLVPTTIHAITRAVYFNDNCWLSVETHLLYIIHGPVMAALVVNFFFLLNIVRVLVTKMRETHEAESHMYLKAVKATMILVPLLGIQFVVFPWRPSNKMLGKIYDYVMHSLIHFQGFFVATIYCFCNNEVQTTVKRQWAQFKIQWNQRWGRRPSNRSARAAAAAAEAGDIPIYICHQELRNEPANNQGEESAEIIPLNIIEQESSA
Assay: IC50 on human calcitonin receptor divided by IC50 on human amylin receptor (SPA competition)
Method: The resulting pellet was resuspended, homogenized and centrifuged (20.000 rpm, 15 min) in a buffer containing 20 mM Na-HEPES and 0.1 mM EDTA (pH 7.4, buffer 2). The resulting pellet was resuspended in buffer 2 and protein concentration was measured (BCA protein Assay, Pierce). The homogenate was kept cold during the whole procedure. […] Samples were analyzed on TopCounter™ (Packard). The IC₅₀ was calculated using (one site binding competition analysis) GraphPad Prism5 as a measure of receptor affinity. […]
Numbered stars: 1 amine (or outer) side, 2 acyl side, 3 side chain; on linkers, the order of the positions; unused ones are H or OH. Bridge positions count the residues as written; N and C are the ends. * marks the point of attachment. C20 diacid = O=C(O)CCCCCCCCCCCCCCCCCCC(=O)*; γGlu = O=C(O)[C@H](CCC(=O)[*:2])N[*:1]
OBSERVED_PROPERTY: Ratio hCT/hAmylin binding
When you answer, write just the number.

| BINDER | Ratio hCT/hAmylin binding |
| --- | --- |
| {C20 diacid-γGlu}-KCNTATCATQRLANFLRHSSPNFGAIPSSTNVGPETY-NH2 (disulfide 2-7 (inferred), analogue of human amylin; also called compound 29) | 13.9 |

Query: What does the record list as Ratio hCT/hAmylin binding for {C20 diacid-γGlu}-KCNTATCATQRLAEFLRHSSPNFGAPLSSTNVGSNTY-NH2 (disulfide 2-7 (inferred), analogue of human amylin; also called compound 7) [N^α1-[(4S)-4-carboxy-4-(19-carboxynonadecanoylamino)butanoyl]-[Glu14,Arg17,Pro21,Pro26]-h-amylin] ?
Reply: 16.5

Query: Lookup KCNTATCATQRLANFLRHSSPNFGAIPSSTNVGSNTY (C20 diacid-gGlu-2xOEG on the alpha amino group of the N-terminal residue (Lys 1); disulfide bridge between the two Cys residues; C-terminal amide, analogue of human amylin; also called compound 24)
Reply: 90
